Target: T1, B7-H2mIg (extracellular domain of human B7-H2 linked to mouse IgG2a) (human; mouse, UniProt O75144 19-256)
T1 construct: extracellular domain; also called B7-H2Ig (mouse Ig); B7-H2Ig; not shown: mouse IgG2a
T1 sequence (looked up): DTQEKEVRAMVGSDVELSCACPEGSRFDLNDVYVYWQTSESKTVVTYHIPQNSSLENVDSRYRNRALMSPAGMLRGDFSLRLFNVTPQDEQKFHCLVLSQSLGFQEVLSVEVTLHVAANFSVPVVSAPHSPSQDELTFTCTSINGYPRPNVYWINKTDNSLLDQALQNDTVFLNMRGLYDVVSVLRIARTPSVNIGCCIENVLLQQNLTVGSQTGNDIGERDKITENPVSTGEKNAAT
Test: capture ELISA, B7-H2mIg coated, anti-human IgG-HRP detection
B7-H2 Binding (specific binding activity as percentage of ICOSIg) by entry:

binder	value
ICOSIg mutant Lys69Ser (Fc fusion, Built on ICOSIg cDNA; not shown: CH2-CH3 portion of human IgG1) EINGSANYEMFIFHNGGVQILCKYPDIVQQFKMQLLKGGQILCDLTKTSGSGNTVSIKSLKFCHSQLSNNSVSFFLYNLDHSHANYYFCNLSIFDPPPFKVTLTGGYLHIYESQLCCQLK	3 % of wild type ICOSIg

Attention now shifts to the item below.
Entry ICOSIg mutant Lys67Ser (Fc fusion, Built on ICOSIg cDNA; not shown: CH2-CH3 portion of human IgG1) EINGSANYEMFIFHNGGVQILCKYPDIVQQFKMQLLKGGQILCDLTSTKGSGNTVSIKSLKFCHSQLSNNSVSFFLYNLDHSHANYYFCNLSIFDPPPFKVTLTGGYLHIYESQLCCQLK : reported B7-H2 Binding (specific binding activity as percentage of ICOSIg) = ?
< 0.1 % of wild type ICOSIg

Data provenance is patent US20030158102A1.
